Target: V158D/E296V/M298Q-FVIIa (Homo sapiens, UniProt P08709, E356V/M358Q/V218D)
Construct: made in house
Sequence (P08709 213-466 V218D/E356V/M358Q limits assumed): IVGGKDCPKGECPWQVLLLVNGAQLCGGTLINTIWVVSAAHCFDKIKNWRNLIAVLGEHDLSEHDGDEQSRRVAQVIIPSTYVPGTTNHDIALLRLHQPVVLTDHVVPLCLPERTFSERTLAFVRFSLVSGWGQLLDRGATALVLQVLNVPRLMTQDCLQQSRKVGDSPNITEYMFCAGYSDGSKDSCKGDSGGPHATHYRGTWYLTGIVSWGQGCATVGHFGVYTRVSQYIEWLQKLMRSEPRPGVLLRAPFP
Sequence (P08709 61-212 limits assumed): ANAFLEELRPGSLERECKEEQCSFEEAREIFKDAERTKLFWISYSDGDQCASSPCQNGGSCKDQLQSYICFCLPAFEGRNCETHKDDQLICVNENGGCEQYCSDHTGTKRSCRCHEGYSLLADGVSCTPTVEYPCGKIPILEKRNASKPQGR
Assay: Isothermal titration calorimetry (iTC200) binding to V158D/E296V/M298Q-FVIIa
Conditions: pH 6.5, 20° C.
property_measured: Kd (nM)
The reply should be a number in nM, with the unit left off.

Which measured Kd belongs to N=C(N)c1ccc2[nH]c(-c3cc(CC(=O)N[C@@H](CC(=O)O)C(=O)O)cc(-c4cc(S(N)(=O)=O)ccc4O)c3O)nc2c1 [Formula I] , tested on V158D/E296V/M298Q-FVIIa (Homo sapiens, UniProt P08709, E356V/M358Q/V218D)?
9
